- ASSAY PROCEDURE: qHTS for Inhibitors of human tyrosyl-DNA phosphodiesterase 1 (TDP1): qHTS in cells in absence of CPT; further: nearly all actives have a fitted effect of over 55% in size
- TEST CONDITIONS: DT40 Tdp1-/- hTDP1 cells, no CPT, ATP luminescence, 48 h
The campaign covered roughly 420,000 compounds. About 64,000 (15%) were called active. Another 27% or so got no clear call; they are omitted. The call rests on the fitted dose curve; in most records, active means well fitted inhibition curve with a large enough effect; inconclusive means small, poorly fitted or top-dose-only effect; inactive means flat fitted curve, though single readings scatter. Not all results are given here.
Hello, when you answer, please use one of the following outcomes: true (1) (active), false (0) (inactive)

Called result for Cc1cc(OCc2cc(C(=O)NCc3cc(C(C)C)no3)no2)cc(C)c1Cl
false (0)

Called result for Cc1nn(C)c(C)c1S(=O)(=O)N1CCC(CO)(Cc2ccc(Cl)cc2)CC1
true (1)

Called result for CN(Cc1ccccc1)CC(O)COc1ccc(CNCc2cc3ccccc3s2)cc1 (configuration not stated)
true (1)

Called result for COC(=O)c1ccc(OC)c(Cn2c(=O)n(Cc3ccccc3)c(=O)c3c2c2cc(OC)ccc2n3C)c1
false (0)

Called result for CCN(CC)Cc1c(C(=O)N/N=C/c2cccc(OCc3ccc(F)cc3)c2)nnn1-c1nonc1N
false (0)

Called result for O=c1c(=O)n(Cc2c(F)cccc2Cl)ccn1Cc1ccccc1
false (0)

Called result for Cc1ccc(S(=O)(=O)N(C)C)cc1NC(=O)COC(=O)c1c(C)noc1C
false (0)

Called result for CCOc1c(Br)cc(/C=C2\C(=O)N(CCC#N)N=C2C)cc1OC
true (1)

Called result for Cc1ccc(C(=O)NCCc2nnc(SCC(=O)Nc3cccc(C(=O)O)c3)n2C)cc1
false (0)

Called result for OC(CNCc1ccc2c(c1)OCO2)COc1ccccc1 (configuration not stated)
false (0)

Called result for CC1C(=O)Nc2ccccc2N1C(=O)c1ccc(F)cc1F (configuration not stated)
false (0)

Called result for O=[N+]([O-])/C=C/c1ccc2c(ccn2Cc2ccccc2)c1
true (1)

Called result for O=C(CN1C(=O)c2ccccc2S1(=O)=O)NC1CCCCC1
false (0)

Called result for O=C(C1CCCO1)N(Cc1ccccc1)c1ccccc1 (configuration not stated)
false (0)

Called result for Cc1cc(Cl)c(S(=O)(=O)NCc2cccnc2)cc1OCC(N)=O
false (0)

Called result for CCOC(=O)c1c(NC(=O)c2cc(CC)on2)sc(C(C)=O)c1C
false (0)

Called result for COc1ccc(C(=O)NCCc2ccc(S(N)(=O)=O)cc2)cc1OC
false (0)

Called result for COc1ccc(OC)c(CN2CCN(C(=O)CNC(=O)c3cc(C)cc(C)c3)CC2)c1
false (0)

Called result for COCCCNC(=O)CN1CCN(Cc2ccccc2Cl)C1=O
false (0)

Called result for CCOC(=O)c1c(C)c(C(=O)NCCc2ccc(S(N)(=O)=O)cc2)c(C)n1CC
false (0)

Called result for CCOC(=O)CC1(NC(=O)c2cc(COc3cncc(Cl)c3)on2)CCCCC1
true (1)

Called result for COc1cccc(N2CC(NS(=O)(=O)c3cccs3)CC2=O)c1 (configuration not stated)
false (0)

----------
- ASSAY PROCEDURE: qHTS for Inhibitors of human tyrosyl-DNA phosphodiesterase 1 (TDP1): qHTS in cells in absence of CPT; further: nearly all actives have a fitted effect of over 55% in size; further: potency means the concentration at half of the fitted maximal effect
- TEST CONDITIONS: DT40 Tdp1-/- hTDP1 cells, no CPT, ATP luminescence, 48 h
The campaign covered roughly 420,000 compounds. About 64,000 (15%) were called active. Roughly 27% stayed inconclusive and do not appear here. The list is a sample of the results.
METRIC NAME: Potency

Illustrative cases are given below, each with its answer.
COMPOUND	Potency
CC1(C)CC(CC(=O)O)C(=O)O1 (configuration not stated)	inactive
OC(COc1ccc(CN2CCSCC2)cc1)CN1CCCCC1 (configuration not stated)	inactive
O=C(O)CCn1c(O)c(C=C2N=c3ccccc3=N2)sc1=S	18.4 µM (active)
C/C(CC(=O)NC(C)c1ccccc1)=N\NC(N)=S (configuration not stated)	inactive
CCCNC(=O)C(=O)Nc1cc2c3c(c1)CCC(=O)N3CCC2	inactive

Moving on to the next compound.
Identify the reported Potency for the following entry. O=C(CCC(=O)OCc1ccc(Cl)cc1)Nc1ccccc1
inactive

----------
- ASSAY PROCEDURE: qHTS for Inhibitors of human tyrosyl-DNA phosphodiesterase 1 (TDP1): qHTS in cells in absence of CPT; further: nearly all actives have a fitted effect of over 55% in size
- TEST CONDITIONS: DT40 Tdp1-/- hTDP1 cells, no CPT, ATP luminescence, 48 h
The campaign covered roughly 420,000 compounds. About 64,000 (15%) were called active. Another 27% or so got no clear call; they are omitted. Calls follow the shape of the dose curve; as a rule, active = well fitted inhibition curve with a large enough effect; inconclusive = small, poorly fitted or top-dose-only effect; inactive = flat fitted curve, though single readings scatter. These entries were drawn from the full list.
Hello, when you answer, please use one of the following outcomes: class 1 (active), class 0 (inactive)

Called result for CCOC(=O)c1ccc(CSc2nnc3cc(C)c4ccccc4n23)cc1
class 1

Called result for CN(Cc1ccco1)S(=O)(=O)c1nnc(NC(=O)c2ccccc2)s1
class 0

Called result for Cc1nc(C(F)(F)F)ccc1C(=O)N1CCC1(C)C(=O)NS(=O)(=O)c1ccc(F)cc1F (stereo unspecified)
class 0

Called result for O=C(CSc1ccsc1[N+](=O)[O-])N1CCCCC1
class 0

Called result for Cc1cccc(OP(=O)(Nc2c(C)n(C)n(-c3ccccc3)c2=O)Oc2cccc(C)c2)c1
class 0

Called result for COc1cccc(COC(=O)C2CCN(S(=O)(=O)c3cccs3)CC2)c1OC
class 0

Called result for O=C(Nc1ccccc1C(=O)N1CCCCCC1)c1ccccc1Cl
class 0

Called result for Cc1nnc(SCCCCSc2nnc(C)c(=O)[nH]2)[nH]c1=O
class 0

Called result for COC(=O)c1ccc(CSc2nncn2N)cc1
class 0

Called result for CC1CCN(C(=O)c2ccccc2NC(=O)Cc2ccccc2)CC1
class 0

Called result for COC(=O)c1ccc(CSc2nncn2C)cc1
class 0

----------
- ASSAY PROCEDURE: qHTS for Inhibitors of human tyrosyl-DNA phosphodiesterase 1 (TDP1): qHTS in cells in absence of CPT; further: nearly all actives have a fitted effect of over 55% in size
- TEST CONDITIONS: DT40 Tdp1-/- hTDP1 cells, no CPT, ATP luminescence, 48 h
About 64,000 (15%) of roughly 420,000 compounds were called active. Another 27% or so got no clear call; they are omitted. The call rests on the fitted dose curve; in most records, active means well fitted inhibition curve with a large enough effect; inconclusive means small, poorly fitted or top-dose-only effect; inactive means flat fitted curve, though single readings scatter. Only a sample is shown.
Hello, when you answer, please use one of the following outcomes: 1 (active), -1 (inactive)

Called result for CC(=O)Cc1nsc(NC(=O)c2ccc(Cl)cc2Cl)n1
-1

Called result for COc1ccc(-c2cn3nc(N4CCCC(C(=O)NCCCOC(C)C)C4)sc3n2)cc1 (configuration not stated)
1

Called result for CCN(c1ccc2c(c1)OCO2)S(=O)(=O)c1cc(Br)cc2c1N(C(=O)C1CC1)CC2
1

Called result for CCC1S/C(=N/N=C/c2ccco2)NC1=O (configuration not stated)
-1

Called result for COc1ccc(C2Sc3ccccc3NC3=C2C(=O)c2ccccc23)c(OC)c1OC (configuration not stated)
1

Called result for COC(=O)C1=C(C)NC(=O)CC1c1ccccc1OC (configuration not stated)
-1

Called result for C=CCN1CN(S(=O)(=O)c2ccc(OC)cc2)c2nc3ccccc3nc21
-1

Called result for COc1ccc(-c2cn3nc(N4CCC(C(=O)Nc5cccc(C)c5C)CC4)sc3n2)cc1
1

Called result for Cc1cc(O)c(Sc2ccccc2)c(=O)o1
-1

Called result for COC(=O)c1c(C)oc2ccc(N(C(=O)Oc3ccccc3)S(=O)(=O)c3ccccc3)cc12
1

Called result for Cc1cccc(C)c1OCC(=O)NC(Cc1c[nH]c2ccccc12)C(=O)O (configuration not stated)
-1

Called result for COc1ccc2oc(C(=O)NCC(Cc3ccccc3)N(C)C)c(C)c2c1 (configuration not stated)
-1

Called result for COc1cccc(C2=CC(=O)C[C@H](c3ccc(F)cc3)C2)c1OC
-1

Called result for COc1ccc(-c2cc(C(=O)NC(C(=O)O)C(C)C)c(C)o2)cc1OC (configuration not stated)
-1

Called result for CCCCC1S/C(=N/N=C/c2cccs2)NC1=O (configuration not stated)
1

Called result for Cc1c(Cl)cccc1NC(=O)CC1SC(=NCC2CCCO2)NC1=O (configuration not stated)
-1

Called result for CCOC(=O)c1c(C)oc2ccc(N(C(=O)c3ccncc3)S(=O)(=O)c3ccc(CC)cc3)cc12
1

Called result for O=C1N/C(=N\N=C\c2ccco2)SC1Cc1ccc(F)cc1 (configuration not stated)
-1

Called result for COc1ccc(-c2cc(C(=O)NC(Cc3c[nH]c4ccccc34)C(=O)O)c(C)o2)cc1OC (configuration not stated)
1

Called result for CCOC(=O)c1c(C)oc2cc(Br)c(OCC(N)=O)cc12
-1

Called result for CCN(CC)CC(=O)Nc1nn(-c2ccccc2)nc1C(N)=O
-1

Called result for O=C(CCS(=O)(=O)c1cc(Br)cc2c1N(C(=O)C1CC1)CC2)Nc1ccc(Br)cc1F
-1

----------
- ASSAY PROCEDURE: qHTS for Inhibitors of human tyrosyl-DNA phosphodiesterase 1 (TDP1): qHTS in cells in absence of CPT; further: nearly all actives have a fitted effect of over 55% in size
- TEST CONDITIONS: DT40 Tdp1-/- hTDP1 cells, no CPT, ATP luminescence, 48 h
Screen size: about 420,000 compounds; about 64,000 (15%) were called active. Not shown: some 27% with an inconclusive outcome. Calls follow the shape of the dose curve; as a rule, active = well fitted inhibition curve with a large enough effect; inconclusive = small, poorly fitted or top-dose-only effect; inactive = flat fitted curve, though single readings scatter. The list is a sample of the results.
Hello, when you answer, please use one of the following outcomes: label 1 = active, label 0 = inactive

Called result for O=C(CCNC(=O)c1ccccc1Cl)NCc1ccco1
label 0

Called result for CC(=O)N1CCSc2ccc(S(=O)(=O)N3CCC(C)CC3)cc21
label 1

Called result for CCOC(=O)C1CCN(S(=O)(=O)c2ccc3c(c2)N(C(C)=O)CCO3)CC1
label 0

Called result for COc1cccc(NC(=S)NCc2ccco2)c1
label 0

Called result for CCc1ccc(CN(Cc2ccco2)C(=O)c2ccccc2Cl)cc1
label 1

Called result for COc1ccc(-c2c(C#N)cnc(C)c2C)c(O)c1OC
label 0
